Test: inhibitors of TNFa-induced NFkB p65 translocation, primary screen, imaging, HUVEC, MLSMR starter and 10KST1 sets (AID 438);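 further: compound added about 3h40 before a 20 min TNFalpha stimulation; signal is the nuclear over cytoplasmic p65 intensity ratio per well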
Details: HUVEC TNFa-induced p65 nuclear translocation; at 2 µM, stronger effect = higher value, 0% TNFa-plus-vehicle, 100% no-TNFa wells
Record YES whenever inhibition is at -10% or higher; record NO when lower.

| Compound | Group |
| --- | --- |
| COc1ccc(C2CNC(=O)C2)cc1OC1CCCC1 (stereo not given) | YES |

Task: Is it the case that O=C(Nc1ccc2c(c1)OCO2)c1cc2n(n1)C(C(F)(F)F)CC(c1ccccc1)N2 (stereo not given) has inhibition reaching or exceeding -10%?
Result: YES

Task: Is it the case that "CC(C)(C)OC(=O)NCCC(=O)Oc1ccc2ccc(=O)oc2c1" has inhibition reaching or exceeding -10%?
Result: YES

----------
Experiment: inhibitors of TNFa-induced NFkB p65 translocation, primary screen, imaging, HUVEC, MLSMR starter and 10KST1 sets (AID 438);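 further: compound added about 3h40 before a 20 min TNFalpha stimulation; signal is the nuclear over cytoplasmic p65 intensity ratio per well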
Conditions: HUVEC TNFa-induced p65 nuclear translocation; at 2 µM, stronger effect = higher value, 0% TNFa-plus-vehicle, 100% no-TNFa wells
Assay readout: inhibition (%)
One number for each entry, in %.

Consider the worked cases shown below.
| Compound | inhibition, % |
| --- | --- |
| CN(C)CC(O)COc1ccc(-c2ccc(C#N)cc2)cc1 (configuration not stated) | -1.5 |
| O=C(CNC1=NCCC1)c1ccc2c(c1)OCCO2 | -10.2 |

Hi there! I need inhibition for each item below, if you can.
1. Fc1ccc2[nH]c3c(N4CCN(C5CCCCC5)CC4)ncnc3c2c1
2. CCO/C([O-])=N/c1c[n+](N2CCOCC2)no1
3. ONC(=Nc1ccccc1)C(=Nc1ccccc1)NO
4. CCCCOc1cccc(-c2nnc(N)s2)c1

Result:
[-4.2, 9.9, -0.3, -13.6]

Hi there! I need inhibition for each item below, if you can.
1. CC[N+](C)(C)Cc1ccccc1Br
2. O=C(Nc1nccs1)NC(C(F)(F)F)C(F)(F)F
3. CCCOc1ccc(/C(O)=C2/C(=O)C(=O)N(CCCN3CCOCC3)C2c2ccncc2)cc1 (configuration not stated)

Result:
-4.5
10.3
-0.5

----------
Experiment: DUSP6 inhibitors restoring Erk phosphorylation by chemical complementation, primary imaging in DUSP6-transfected HeLa (AID 609)
Details: HeLa MKP-3 transfected, phospho-Erk imaging KS statistic; measured here: nuclear pErk red intensity z-score; at 10 µM; stronger effect = higher value; cells stimulated with TPA for 15 min
Record met whenever z-score is at -0.2 or higher; record not met when lower.

Solved entries (count: 2):
| Molecule | Group |
| --- | --- |
| COc1ccc(/C(O)=C2/C(=O)C(=O)N(CCCN(C)C)C2c2ccccc2)cc1OC (stereo unspecified) | met |
| c1cncc(-c2nnc3sc(C4CCCCC4)nn23)c1 | met |

Task: Is it the case that "NC(N)=NC(=O)c1nc(Cl)c(N)nc1N" has z-score reaching or exceeding -0.2?
Result: not met

Task: Is it the case that "O=C(Nc1cccnc1)c1cccnc1" has z-score reaching or exceeding -0.2?
Result: not met

Task: Is it the case that CN(C)CC(O)COc1ccc(C(C)(C)c2ccc(OCC(O)CN(C)C)cc2)cc1 (stereo unspecified) has z-score reaching or exceeding -0.2?
Result: met
